Entry source: paper PMC6021035

# Test system: Kocuria rhizophila ATCC 9341
MIC values by entry

These solved cases illustrate the format of a correct answer.
COc1cc(NC(C)CCCNC(=O)NC(CC(C)C)C(=O)NC(c2ccccc2)c2ccccc2)c2ncccc2c1 (centres unmarked) :: 25 µg/mL
COc1cc(NC(C)CCCNC(=O)NC(C(=O)NC(c2ccccc2)c2ccc(Cl)cc2)c2ccc(Cl)cc2)c2ncccc2c1 (centres unmarked) :: > 100 µg/mL
COc1cc(NC(C)CCCNC(=O)NC(C(=O)NC(c2ccccc2)c2ccccc2)c2ccc(Cl)cc2)c2ncccc2c1 (centres unmarked) :: > 100 µg/mL
COc1cc(NC(C)CCCN)c2ncccc2c1 (centres unmarked) [PQ, reference compound] :: 50 µg/mL
CN(C)[C@@H]1C(O)=C(C(N)=O)C(=O)[C@@]2(O)C(O)=C3C(=O)c4c(O)cccc4[C@@](C)(O)[C@H]3C[C@@H]12 [TC, tetracycline, reference compound] :: 0.63 µg/mL
COc1ccc(C(=NNC(=O)C(NC(=O)NCCCC(C)Nc2cc(OC)cc3cccnc23)c2ccc(Cl)cc2)c2ccccc2)cc1 (centres unmarked) :: > 100 µg/mL

What value of MIC has been reported for the following compound? COc1cc(NC(C)CCCNC(=O)NC(C(=O)NC(c2ccccc2)c2ccc(Cl)cc2)c2ccccc2)c2ncccc2c1 (centres unmarked)
> 100 µg/mL

Now the compound COc1cc(NC(C)CCCNC(=O)NC(C(=O)N(C)C(c2ccccc2)c2ccccc2)c2ccccc2)c2ncccc2c1 (centres unmarked)
> 100 µg/mL
